Measured Ki accompanies every entry in the list below.
# TEST SYSTEM: human furin (Homo sapiens, UniProt P09958)
# Sequence (P09958 108-574 limits assumed): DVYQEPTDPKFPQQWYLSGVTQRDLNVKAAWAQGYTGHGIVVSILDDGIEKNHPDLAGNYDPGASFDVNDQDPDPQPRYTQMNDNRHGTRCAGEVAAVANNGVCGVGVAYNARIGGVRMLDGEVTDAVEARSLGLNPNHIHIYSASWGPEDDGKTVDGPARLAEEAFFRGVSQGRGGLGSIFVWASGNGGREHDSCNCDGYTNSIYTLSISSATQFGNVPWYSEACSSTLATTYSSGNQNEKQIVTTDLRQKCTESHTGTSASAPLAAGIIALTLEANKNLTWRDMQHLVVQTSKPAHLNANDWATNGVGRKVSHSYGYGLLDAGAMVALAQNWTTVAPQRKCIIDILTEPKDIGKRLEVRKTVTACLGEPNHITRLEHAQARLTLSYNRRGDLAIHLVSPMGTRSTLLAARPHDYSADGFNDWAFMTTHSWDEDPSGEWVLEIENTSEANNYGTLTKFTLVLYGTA

STRUCTURE STRING | MEASUREMENT UNIT | Ki
N=C(N)N/N=C/c1ccc(/C=N/NC(=N)N)cc1 | µM | 3.1
C/C(=N\NC(=N)N)c1cc(N)cc(/C(C)=N/NC(=N)N)c1 | µM | 3.3
